Source listed as PubChem BioAssay.

- Test details: suppressors of polyQ aggregation in yeast, 75Q-TubU reporter (AID 1593)
- Experimental context: Yeast 75Q polyglutamine aggregation reporter
Please go through the items and note down their score.
Just the number, please.

Output measured score for this item: CSCCC(N)C(=O)NC(CC(C)C)C(=O)NC(Cc1ccccc1)C(=O)O (stereo unspecified)
1.68

State its score for this compound: COc1cc(S(C)=O)ccc1-c1nc2ncccc2[nH]1 (stereo unspecified)
1.52

Give the reported score for this compound. CC(C)(C)NCC(O)c1ccc(O)c(CO)c1 (stereo unspecified)
1.14

Please report score for the following compound: CC(Oc1ccccc1)C(=O)N[C@@H]1C(=O)N2[C@@H]1SC(C)(C)[C@@H]2C(=O)O (stereo partly specified)
1.4

Note down score recorded for `CN(C(=O)CN(CCO)CC(=O)N(C)C(C)(C)Cc1ccccc1)C(C)(C)Cc1ccccc1`
1.1

Give the reported value of score for this record: `Cc1c(N)c(=O)n(-c2ccccc2)n1C`
1.65
